molecular target: Meprin β (Homo sapiens); construct: For the purified, truncated variant Meprin β^62–595 (MβΔC), despite reduced protein yield, identical specific activity was detected; His-tag (N, cleaved yes); made in house; host or cells: Pichia pastoris; experiment: Meprin β enzyme inhibition (cleavage of quenched fluorogenic peptide Abz-YVAEAPK(Dnp)G-OH); assay type: biochemical; details: 40 mM Tris pH 8.0 (no NaCl); read-out: Ki
property label: Ki (nM)
Your answer should be a plain number; it is taken to be in nM.

>  <molecule smiles>
O=C(CN(Cc1cccc(C(=O)O)c1)Cc1ccc2c(c1)OCO2)NO

>  <unit of measurement>
nM

>  <readout value>
192

$$$$

Let us move to another entry and its Ki.
Recorded Ki of O=C(CN(Cc1ccccc1)Cc1cccc(C(=O)O)c1)NO , please.
1390

###

target: Meprin β62–595 (MβΔC) (Homo sapiens); construct: His-tag (N, cleaved yes); α-mating factor secretion signal (S. cerevisiae) (N, cleaved yes); made in house; host or cells: Pichia pastoris X33; test: Isothermal titration calorimetry (ITC) of inhibitors to Meprin β62–595 (MβΔC); format: binding; details: ITC, 30 °C, 150 mM NaCl, 40 mM Tris pH 8.0
property label: Kd (nM)
Your answer should be a plain number; it is taken to be in nM.

Recorded Kd of O=C(CN(Cc1cccc(C(=O)O)c1)Cc1cccc(C(=O)O)c1)NO , please.
400

###

target: Meprin β (Homo sapiens); construct: For the purified, truncated variant Meprin β^62–595 (MβΔC), despite reduced protein yield, identical specific activity was detected; His-tag (N, cleaved yes); made in house; host or cells: Pichia pastoris; assay: Meprin β enzyme inhibition (cleavage of quenched fluorogenic peptide Abz-YVAEAPK(Dnp)G-OH); assay type: biochemical; conditions: 150 mM NaCl, 40 mM Tris pH 8.0; read-out: Ki
property label: pKi
Remember, pKi is on a log scale: it is -log10 of the molar concentration.

Recorded pKi of O=C(CN(Cc1cccc(C(=O)O)c1)Cc1cccc(C(=O)O)c1)NO , please.
6.70

###

Target: Meprin β (Homo sapiens)
Construct: For the purified, truncated variant Meprin β^62–595 (MβΔC), despite reduced protein yield, identical specific activity was detected; His-tag (N, cleaved yes); made in house; host or cells: Pichia pastoris
Sequence (Q16820 62-595): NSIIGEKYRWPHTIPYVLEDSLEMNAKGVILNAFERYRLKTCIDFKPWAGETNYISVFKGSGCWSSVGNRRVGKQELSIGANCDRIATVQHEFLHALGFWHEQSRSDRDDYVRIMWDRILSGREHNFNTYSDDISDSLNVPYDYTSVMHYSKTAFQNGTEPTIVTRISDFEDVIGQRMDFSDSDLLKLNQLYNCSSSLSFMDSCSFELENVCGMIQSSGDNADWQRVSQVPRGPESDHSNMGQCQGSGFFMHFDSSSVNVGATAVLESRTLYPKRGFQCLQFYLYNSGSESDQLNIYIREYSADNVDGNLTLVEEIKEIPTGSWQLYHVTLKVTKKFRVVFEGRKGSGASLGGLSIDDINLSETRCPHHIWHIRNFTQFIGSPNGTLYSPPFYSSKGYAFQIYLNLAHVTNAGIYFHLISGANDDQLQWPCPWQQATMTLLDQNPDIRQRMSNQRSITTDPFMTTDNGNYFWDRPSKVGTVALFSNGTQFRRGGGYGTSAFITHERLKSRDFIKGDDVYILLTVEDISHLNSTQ
Assay: Meprin β enzyme inhibition (cleavage of quenched fluorogenic peptide Abz-YVAEAPK(Dnp)G-OH)
Format: biochemical
Conditions: Ki, 40 mM Tris pH 8.0 (no NaCl)
property label: Ki (nM)
Your answer should be a plain number; it is taken to be in nM.

Write down the reported Ki of O=C(CN(Cc1cccc(C(=O)O)c1)Cc1cccc(C(=O)O)c1)NO [1 (270)] , test system: Meprin β (Homo sapiens).
28.6
